- protocol_details: Human HepG2 cell viability assay in 384 well format
- Type: toxicity, cell-based
- Parameters: dose 125 nL, time 70.5 hour; concentration not given beside the values
- condition_info: HepG2 cells, read-out: Inhibition
assay_readout: cytotoxicity at 70.5 h (%)
Numbers only, in %.

> print(dat)
                                   compound  measurement
1  Cc1ccccc1C(C(=O)NCCSC(C)C)N(C)C (centres undefined)        -9.38
2  O=C(NCC(O)c1cccc(F)c1)C1CCN(C2CCCCC2)CC1 (centres undefined)        -16.4
3  Cc1c(C(=O)N2CCCC(O)(CN(C)C)CC2)c2cc(O)ccc2n1C (centres undefined)         13.3
4  Cc1cc(C)n(CC2CN(CC(=O)NC3(C#N)CCCC3)CCO2)n1 (centres undefined)         -3.7
5  Cn1cnnc1-c1cncc(NCc2cccc3c2OC(C)(C)C3)c1         8.22

Respectfully, I request cytotoxicity at 70.5 h for each entry included below.
1. CN(C)c1ccc(CC(=O)N2CCOCC(O)C2)cc1 (centres undefined)
2. COCc1cc(NCc2ccccc2OC)ncn1
3. Cc1cnn(CC2CCCN2CC(=O)Nc2nncs2)c1 (centres undefined)
4. COCCn1cncc1-c1nc2c([nH]1)CC(C)(C)CNC2=O

Ans.
1: 22.5; 2: -7.89; 3: -5.64; 4: -4.1

Parameter requested: cytotoxicity at 70.5 h. Apply to each item below.
1. COCCCn1ccc(NS(=O)(=O)c2cc(C)c(F)cc2F)n1
2. CCNC(=O)NC(=O)CN1CCOC(c2ccccc2Cl)C1 (centres undefined)
3. COc1cc(NC(=O)N2CCCC2c2ccco2)cc(OC)c1 (centres undefined)

Ans.
-15.7
-9.68
-8.23

Parameters: items (list). Returns: cytotoxicity at 70.5 h for each item.
1. CS(=O)(=O)c1ccc(Cl)c(C(=O)NCCC2=CCCCC2)c1
2. Cc1ccc(C)c2c(O)cc(CN3CCC(=O)NCC3C)nc12 (centres undefined)
3. Cc1cc(C)n(C2=NC(NCCCO)c3c(sc4c3CCCC4)N2)n1 (centres undefined)
4. CC(C)c1nnc(NC(=O)NCc2ccnc(N(C)C)c2)s1
5. O=C(NCCc1nnc2n1CCC2)NC1(c2cccc(F)c2)CC1
6. CN(C)CCN(C)c1nc(CCc2ccccc2)nc2c1cnn2C

Ans.
[32.9, -8.42, -11.9, -19.1, 7.47, -1.09]

Give one value of cytotoxicity at 70.5 h per listed compound.
1. Cc1noc(C)c1C(=O)N1CCC(c2[nH]ncc2S(C)(=O)=O)C1 (centres undefined)
2. Cc1ccc(-c2cnnc(NCC3CCOCC3)n2)o1
3. CCC(CC)n1nc(C)cc1NC(=O)CC1CCOCC1
4. O=C(NCCn1ccnc1)N1CCN(Cc2cccnc2)CC1
5. CCn1cc(S(=O)(=O)N2CCC3(CCCN(CC4CCC4)C3=O)C2)cn1 (centres undefined)

Ans.
1. -1.52
2. 28.5
3. -8.16
4. -5.29
5. -0.872

Qu. Quick one: give measured cytotoxicity at 70.5 h for Cc1ccc(N2CCC3(CCN(Cc4ccccn4)CC3)CC2)nn1
Ans. -11.7

---

- protocol_details: Human HepG2 cell viability assay in 384 well format
- Assay type: toxicity, cell-based
- Design: dose 125 nL, time 70.5 hour; concentration not given beside the values
- condition_info: HepG2 cells, read-out: Inhibition
What cytotoxicity at 70.5 h was measured for each of the following?
Answers are plain numbers, in %.

As a guide, the following entries are already answered.
> print(dat)
                                   compound           assay.readout  result.units  measurement
1  CC(=O)NCC(=O)N1CCC2(CC1)NC(=O)CC2c1cnn(C)c1 (stereo unspecified)  cytotoxicity at 70.5 h             %        -8.17
2  COC(=O)N1CCCCC1C(=O)N1CCC(c2ccncc2)CC1 (stereo unspecified)  cytotoxicity at 70.5 h             %        -3.09
3  CCC1CN(C(=O)c2cnc(-c3ccccc3)s2)CCO1 (stereo unspecified)  cytotoxicity at 70.5 h             %        -1.27
4  CCn1nc(C)c(C(C)NC(=O)c2cccc(NCC(=O)O)c2)c1C (stereo unspecified)  cytotoxicity at 70.5 h             %        -9.45
5  O=C(NCc1cn2cccnc2n1)C1CC(=O)N(Cc2ccccn2)C1 (stereo unspecified)  cytotoxicity at 70.5 h             %        -6.73

Dear reader, for each entry below, please note its cytotoxicity at 70.5 h.
1. COCCN1C(=O)CCC12CCN(C(=O)CC1CC1)CC2
2. CS(=O)(=O)c1cc(NC(=O)COc2ccccc2F)cc(C(=O)O)c1
3. CCc1ccsc1C(=O)N1CCN(CC(C)O)CC1 (stereo unspecified)
4. c1ccc(-c2nc3c(c(NCCn4ccnn4)n2)CCNCC3)nc1
5. O=C(CCN1CCCCO1)NCc1cn2c(n1)SCC2

Ans.
35.3
-2.84
-2.62
-6.02
-0.977

Qu. Supply measured cytotoxicity at 70.5 h of COCc1ncc(CN2CCC3(CCC(=O)N(CC(C)O)C3)CC2)cn1 (stereo unspecified) in your reply.
Ans. -9.93
